Assay: Half life in human
Format: ADME, organism-based
Details: in vivo
Metric: half-life (h)
Give the value, in units of h, as a plain number.

input: Respond only with half-life recorded for C[C@@H](c1nc(-c2ccc(C#N)cc2)cs1)[C@](O)(Cn1cncn1)c1ccc(F)cc1F [RAVUCONAZOLE]
output: 96

====

Test: Half life in mongrel dog
Assay type: ADME, organism-based, Canis lupus familiaris
Details: in vivo
Metric: half-life

input: Read off the recorded half-life for C[C@@H](c1nc(-c2ccc(C#N)cc2)cs1)[C@](O)(Cn1cncn1)c1ccc(F)cc1F [RAVUCONAZOLE]
output: 8.8 h

====

Assay: Half life in po dosed human
Type: ADME, organism-based
Details: in vivo
Metric: half-life

input: Answer with reported half-life of `C[C@@H](c1nc(-c2ccc(C#N)cc2)cs1)[C@](O)(Cn1cncn1)c1ccc(F)cc1F`
output: ≥ 120 h
